Field: IC50. Provide a value for each of the compounds that follow.
Test: Inhibition of Albino Wistar rat CaMK2 in brain cytosolic fraction using GST-NR2A as substrate incubated for 1 min prior to substrate addition measured after 1 min in presence of EGTA
Assay type: tissue-based
// return numeric value only (unit: µM, not printed)

Request: Entry under review: COc1cc(/C=C/c2cc(/C=C/c3ccc(O)c(OC)c3)[nH]n2)ccc1O . Reported IC50?
Response: 0.44

Request: Entry under review: COc1cc(/C=C/c2cc(/C=C/c3ccc(O)c(OC)c3)on2)ccc1O . Reported IC50?
Response: 13.7

Request: Entry under review: COc1cc(/C=C/C(=O)CC(=O)/C=C/c2ccc(O)c(OC)c2)ccc1O (stereo in doubt) . Reported IC50?
Response: 64

Request: Entry under review: COc1cc(/C=C/c2cc(/C=C/c3ccc(O)c(OC)c3)n(-c3ccccc3)n2)ccc1O . Reported IC50?
Response: 96

---

Field: pIC50. Provide a value for each of the molecules that follow.
Target: Calcium/calmodulin-dependent protein kinase type II subunit alpha (Homo sapiens, UniProt Q9UQM7)
Sequence (Q9UQM7 whole entry): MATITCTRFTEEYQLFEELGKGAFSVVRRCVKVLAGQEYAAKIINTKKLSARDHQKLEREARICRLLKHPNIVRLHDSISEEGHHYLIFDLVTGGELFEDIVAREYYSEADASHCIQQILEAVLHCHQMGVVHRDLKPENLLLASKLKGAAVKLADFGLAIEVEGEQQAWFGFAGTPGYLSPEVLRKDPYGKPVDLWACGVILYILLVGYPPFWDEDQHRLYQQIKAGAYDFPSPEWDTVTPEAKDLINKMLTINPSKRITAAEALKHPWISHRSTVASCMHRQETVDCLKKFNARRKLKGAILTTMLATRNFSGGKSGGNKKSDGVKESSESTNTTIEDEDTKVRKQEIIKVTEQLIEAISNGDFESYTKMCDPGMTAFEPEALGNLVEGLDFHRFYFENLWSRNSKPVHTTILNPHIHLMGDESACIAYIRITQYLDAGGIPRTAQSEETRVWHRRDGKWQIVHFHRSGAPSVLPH
Experiment: Inhibition of autophosphorylated alphaCaMK2 using GST-NR2A as substrate incubated for 1 min prior to substrate addition measured after 1 min in presence of EGTA
The read-out pIC50 is expressed as -log10 of concentration in moles per litre.

Request: Entry under review: COc1cc(/C=C/c2cc(/C=C/c3ccc(O)c(OC)c3)[nH]n2)ccc1O . Reported pIC50?
Response: 6.54

Request: Entry under review: COc1cc(/C=C/C(=O)CC(=O)/C=C/c2ccc(O)c(OC)c2)ccc1O (stereo in doubt) . Reported pIC50?
Response: 4.47

Request: Entry under review: COc1cc(/C=C/c2cc(/C=C/c3ccc(O)c(OC)c3)on2)ccc1O . Reported pIC50?
Response: 6.17

Request: Entry under review: COc1cc(/C=C/c2cc(/C=C/c3ccc(O)c(OC)c3)n(-c3ccccc3)n2)ccc1O . Reported pIC50?
Response: 4.27

---

Target: Calcium/calmodulin-dependent protein kinase type II subunit alpha (Homo sapiens, UniProt Q9UQM7)
Assay: Inhibition of alphaCaMK2 using GST-NR2A as substrate incubated for 1 min prior to substrate addition measured after 1 min
pIC50: −log10 of the molar value.
Give true when the value for pIC50 is at least 5. Give false when it is less.

Request: # check: pIC50 of O=C(/C=C/c1ccc(O)cc1)CC(=O)/C=C/c1ccc(O)cc1 is greater than or equal to 5
Response: false

Request: # check: pIC50 of COc1cc(/C=C/C(O)=C/C(=O)/C=C/c2ccc(O)cc2)ccc1O is greater than or equal to 5
Response: false

Request: # check: pIC50 of COc1cc(/C=C/c2cc(/C=C/c3ccc(O)c(OC)c3)[nH]n2)ccc1O is greater than or equal to 5
Response: true

Request: # check: pIC50 of COc1cc(/C=C/c2cc(/C=C/c3ccc(O)c(OC)c3)n(-c3ccccc3)n2)ccc1O is greater than or equal to 5
Response: false

Request: # check: pIC50 of COc1cc(/C=C/C(=O)CC(=O)/C=C/c2ccc(O)c(OC)c2)ccc1O (stereo in doubt) [CURCUMIN] is greater than or equal to 5
Response: false

---

Molecular target: Calcium/calmodulin-dependent protein kinase type II subunit alpha (Homo sapiens, UniProt Q9UQM7)
Assay: Inhibition of alphaCaMK2 autophosphorylation at Thr286 using [gamma32P]ATP incubated for 30 secs prior to ATP addition measured after 30 secs
observable: IC50 (µM)
// return numeric value only (unit: µM, not printed)

Request: Entry under review: COc1cc(/C=C/C(=O)CC(=O)/C=C/c2ccc(O)c(OC)c2)ccc1O (stereo in doubt) [CURCUMIN] . Reported IC50?
Response: 33

Request: Entry under review: COc1cc(/C=C/c2cc(/C=C/c3ccc(O)c(OC)c3)n(-c3ccccc3)n2)ccc1O . Reported IC50?
Response: 111

Request: Entry under review: COc1cc(/C=C/c2cc(/C=C/c3ccc(O)c(OC)c3)on2)ccc1O . Reported IC50?
Response: 18

Request: Entry under review: COc1cc(/C=C/c2cc(/C=C/c3ccc(O)c(OC)c3)[nH]n2)ccc1O [CURCUMIN PYRAZOLE] . Reported IC50?
Response: 6.5

---

Target: Calcium/calmodulin-dependent protein kinase type II subunit alpha (Homo sapiens)
Assay: Inhibition of autophosphorylated alphaCaMK2 using GST-NR2A as substrate incubated for 1 min prior to substrate addition measured after 1 min
Field: pIC50. Provide a value for each of the molecules that follow.
The read-out pIC50 is expressed as -log10 of concentration in moles per litre.

Request: State its pIC50 on Calcium/calmodulin-dependent protein kinase type II subunit alpha (Homo sapiens): COc1cc(/C=C/C(=O)CC(=O)/C=C/c2ccc(O)c(OC)c2)ccc1O (stereo in doubt)
Response: 4.35

Request: State its pIC50 on Calcium/calmodulin-dependent protein kinase type II subunit alpha (Homo sapiens): COc1cc(/C=C/c2cc(/C=C/c3ccc(O)c(OC)c3)on2)ccc1O
Response: 4.61

Request: State its pIC50 on Calcium/calmodulin-dependent protein kinase type II subunit alpha (Homo sapiens): COc1cc(/C=C/c2cc(/C=C/c3ccc(O)c(OC)c3)[nH]n2)ccc1O
Response: 5.20

Request: State its pIC50 on Calcium/calmodulin-dependent protein kinase type II subunit alpha (Homo sapiens): COc1cc(/C=C/c2cc(/C=C/c3ccc(O)c(OC)c3)n(-c3ccccc3)n2)ccc1O
Response: 4.10
